Method summary: C. albicans growth inhibition with fluconazole, primary screen, CaCi-2 strain, Alamar Blue fluorescence (AID 1979);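 further: all wells also contain fluconazole at 8 µg/ml as a sub-toxic cotreatment; 0% = median of DMSO wells and 100% = median of geldanamycin control wells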
Condition notes: C. albicans CaCi-2 (fluconazole-resistant clinical isolate) + fluconazole, 48 h, concentration not given here
Out of some 300,000 compounds screened, about 1,700 (0.57%) were called active. Not shown: some 2% with an inconclusive outcome.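 How the source made its calls: active means growth inhibition above about 58% in most replicates (limit read from the data, passing the limit was not always enough); inconclusive means exactly half the replicates above a set limit; inactive means most replicates below a set limit.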 Shown is part of a subset that was picked to be rich in actives.
Your response should consist of one outcome taken from 1 (active), -1 (inactive)

Previously resolved entries follow.
[
  {
    "Compound": "O=C(Nc1ccc(Br)cn1)c1ccc([N+](=O)[O-])o1",
    "Category": -1
  },
  {
    "Compound": "Cc1oc2c(F)c(F)c(F)c(F)c2c1S(=O)(=O)Nc1cccc(C(F)(F)F)c1",
    "Category": 1
  },
  {
    "Compound": "CC12CCC(C(=O)N(NC(=O)c3ccccc3O)C1=O)C2(C)C (stereo not given)",
    "Category": 1
  },
  {
    "Compound": "C/C(=N\\NC(=O)CC(C)C)c1c(C(F)(F)F)[nH]n(-c2nc3ccccc3s2)c1=O",
    "Category": -1
  },
  {
    "Compound": "CSCc1nnc(NC(=O)c2ccc(S(=O)(=O)N3CCCCC3C)cc2)o1 (stereo not given)",
    "Category": -1
  }
]

Hi, do you know how O=C(NC(Cc1ccccc1)C(=O)N1CCCC(C(F)(F)F)C1)c1ccccc1 (stereo not given) came out in this test?
-1

I'd appreciate the recorded outcome for `CCCCN(C(=O)CSCC(=O)Nc1ccc(OC)cc1)c1c(N)n(CCC)c(=O)[nH]c1=O` from this test.
-1

Hey, what did the test say about `CCN1C(=O)[C@H]2[C@@H](c3ccc(C)cc3)N3C(=O)N(c4cccc(Br)c4)C(=O)[C@@]3(CC)[C@H]2C1=O` ?
-1

Query: recorded result category for CN(CC(=O)Nc1cccc(F)c1)C(=O)C1CC(=O)N(CCc2ccccc2)C1 (stereo not given) in this test
-1

Status in this test for `Cc1c(CCO)sc[n+]1CC(=O)OC12CC3CC(CC(C3)C1)C2` ?
-1

Answer briefly: the call reported for C=CCOc1ccc(/C=C/C(=O)OC(C)C(=O)Nc2ccc(NC(C)=O)cc2)cc1 (stereo not given) in this assay.
-1

Which result was noted for this compound in the test: CC(CN1CCC(n2nccc2NC(=O)C2CCCC2)CC1)c1ccccc1 (stereo not given)
-1

Recorded test call requested for `Cc1cccc(NC(=O)c2ccc([N+](=O)[O-])o2)c1`
1

# outcome recorded in this test, key = `Cc1cc(NC(=O)CCS(=O)(=O)c2ccc(F)cc2)no1`
-1

Please share the test call associated with `Cc1ccc(-c2cc(C(=O)NC3CCN(Cc4ccccc4)CC3)c3ccccc3n2)cc1` .
-1

Taken from PubChem BioAssay AID1979.
